# experiment: in vivo
# test_conditions: mouse, sc
The entries below are paired with their reported LD50.
Numeric answer plus unit only.

CCCN(CC(=O)Nc1c(C)cccc1C)C(C)(C)CC [Compound D]; 109 mg/kg
CCCCN1CCCCC1C(=O)Nc1c(C)cccc1C (stereo not drawn) [X, N-n-butylpipecolyl-2,6-xylidide, reference compound]; 45 mg/kg

Now consider the entry below.
LD50 in this record for Cc1cccc(C)c1NC(=O)CNC(C)(C)C [A, 2-(tert.-butylamino)-2',6'-acetoxylidide] : 141 mg/kg

---

The entries below are paired with their reported LD50.
# experiment: in vivo
# test_conditions: mouse, iv
Kindly answer with a numeric value in mg/kg, unit omitted.

Previously resolved entries follow.
Cc1cccc(C)c1NC(=O)CNC(C)(C)C [A, 2-(tert.-butylamino)-2',6'-acetoxylidide]; 35.4
CCN(CC(=O)Nc1c(C)cccc1C)C(C)(C)CC; 7.4

LD50 in this record for CCCCN1CCCCC1C(=O)Nc1c(C)cccc1C (stereo not shown) [X, N-n-butylpipecolyl-2,6-xylidide, reference compound] : 6.4

LD50 in this record for "CCCN(CC(=O)Nc1c(C)cccc1C)C(C)(C)CC" : 6.8
